So I've got a bunch of molecules here, and I need their LD50 values.
Assay: in vivo
Conditions: ip, Mouse
# number only, unit mg/kg dropped from output

### Prompt Recorded LD50 for CCC1(O)CC(OC2CC(N(C)C)C(OC3CC(O)C(OC4CCC(O)C(C)O4)C(C)O3)C(C)O2)c2c(cc3c(c2O)C(=O)c2c(O)cccc2C3=O)C1C(=O)OC (centres unmarked) , please?
### Response 35

### Prompt Entry CCC1(O)CC(OC2CC(N(C)C)C(OC3CC(O)C(OC4CCC(O)C(C)O4)C(C)O3)C(C)O2)c2c(cc3c(c2O)C(=O)c2c(O)ccc(O)c2C3=O)C1C(=O)OC (centres unmarked) has what LD50?
### Response 12.5

All figures here come from patent US4204038A.
